Hey, just so you know, these numbers are from patent US8119644B2.

# TARGET OR SYSTEM: rat P2X3 receptor (Rattus norvegicus, UniProt P49654)
# Construct: expressed in transfected cells; host or cells: CHO-K1
# Sequence (P49654 whole entry): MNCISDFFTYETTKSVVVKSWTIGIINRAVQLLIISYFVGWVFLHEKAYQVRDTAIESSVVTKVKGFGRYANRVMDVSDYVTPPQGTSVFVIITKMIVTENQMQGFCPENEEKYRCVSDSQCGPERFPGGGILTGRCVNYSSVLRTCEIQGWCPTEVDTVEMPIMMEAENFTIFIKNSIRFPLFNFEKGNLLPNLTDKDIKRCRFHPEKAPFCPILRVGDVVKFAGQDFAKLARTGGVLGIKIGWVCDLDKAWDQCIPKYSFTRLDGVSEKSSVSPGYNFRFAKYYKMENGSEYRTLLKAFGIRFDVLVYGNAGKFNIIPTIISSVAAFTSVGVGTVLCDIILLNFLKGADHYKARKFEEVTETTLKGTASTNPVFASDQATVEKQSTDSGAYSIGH
# PROTOCOL SUMMARY: P2X3 FLIPR (Fluorometric Imaging Plate Reader) assay, CHO-K1 cells
# Format: cell-based
# MEASUREMENT SETUP: CHO-K1 cells transfected with cloned rat P2X3; agonist α,β-meATP 1 μM; Fluo-3 calcium fluorescence; read-out: P2X3 (pKi) (converted)
METRIC: Ki (nM)

Would you please look over these solved cases?
{"MOLECULE": "Cc1ccc(-c2cc(C(=O)NCc3cnc(C)cn3)cc(-c3nsnc3C(C)C)c2)nc1", "MEASURED RESULT": 18.2}
{"MOLECULE": "Cc1ccc(-c2cc(C(=O)N[C@H](C)CO)cc(-c3nsnc3C(C)C)c2)nc1", "MEASURED RESULT": 6.92}
{"MOLECULE": "Cc1ccc(-c2cc(C(=O)NCc3cnc(C)nc3)cc(-c3snnc3C(C)C)c2)nc1", "MEASURED RESULT": 8.91}

(a) Cc1ccc(-c2cc(C(=O)NCc3cnc(C)cn3)cc(-c3snnc3C(C)C)c2)nc1
(b) Cc1ccc(-c2cc(C(=O)NCc3ncc(C)cn3)cc(-c3snnc3C(C)C)c2)nc1
(c) COCC(C)NC(=O)c1cc(-c2ccc(C)cc2)cc(-c2csnn2)c1 (stereo not shown)
(d) Cc1ccc(-c2cc(C(=O)N[C@H](C)CO)cc(-c3snnc3C(C)C)c2)nc1
Arrange the 4 molecules by rising Ki, starting with the smallest. Provide the ranking by listing each label in its place in the requested order.
d, a, b, c
(d: 4.27 nM, a: 9.12 nM, b: 16.6 nM, c: 4680 nM)

* * *

# TARGET OR SYSTEM: human P2X2/3 receptor (Homo sapiens, UniProt P56373+Q9UBL9)
# Construct: expressed in transfected cells; host or cells: CHO-K1
# Sequence (Q9UBL9 1-471): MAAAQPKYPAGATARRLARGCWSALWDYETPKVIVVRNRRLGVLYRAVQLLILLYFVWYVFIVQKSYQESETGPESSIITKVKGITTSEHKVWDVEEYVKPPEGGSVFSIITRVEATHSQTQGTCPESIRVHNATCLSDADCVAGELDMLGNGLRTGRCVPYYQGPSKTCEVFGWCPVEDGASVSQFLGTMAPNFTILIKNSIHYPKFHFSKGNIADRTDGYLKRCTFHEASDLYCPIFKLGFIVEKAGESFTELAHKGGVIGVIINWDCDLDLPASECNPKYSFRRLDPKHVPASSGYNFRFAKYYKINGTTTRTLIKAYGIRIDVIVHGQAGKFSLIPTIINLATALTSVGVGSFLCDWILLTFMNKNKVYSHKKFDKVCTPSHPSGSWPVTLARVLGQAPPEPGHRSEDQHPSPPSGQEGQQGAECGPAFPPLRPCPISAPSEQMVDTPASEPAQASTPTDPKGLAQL
# Sequence (P56373 1-397): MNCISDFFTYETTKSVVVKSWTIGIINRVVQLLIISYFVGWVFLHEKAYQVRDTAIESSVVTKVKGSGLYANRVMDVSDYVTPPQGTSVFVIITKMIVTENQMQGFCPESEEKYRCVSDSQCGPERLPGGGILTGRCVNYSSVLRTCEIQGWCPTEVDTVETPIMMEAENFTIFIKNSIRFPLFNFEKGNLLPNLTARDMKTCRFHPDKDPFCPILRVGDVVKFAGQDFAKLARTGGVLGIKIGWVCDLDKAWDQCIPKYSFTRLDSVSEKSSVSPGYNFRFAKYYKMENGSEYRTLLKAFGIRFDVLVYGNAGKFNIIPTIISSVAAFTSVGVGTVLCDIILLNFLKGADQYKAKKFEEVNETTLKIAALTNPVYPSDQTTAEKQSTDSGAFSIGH
# PROTOCOL SUMMARY: P2X2/3 FLIPR (Fluorometric Imaging Plate Reader) assay, CHO-K1 cells
# Type: cell-based
# MEASUREMENT SETUP: CHO-K1 cells transfected with human P2X2/3; agonist α,β-meATP 5 μM; Fluo-3 calcium fluorescence; read-out: P2X2/3 (pKi) (converted)
METRIC: Ki (nM)

Would you please look over these solved cases?
{"COMPOUND": "Cc1ccc(-c2cc(C(=O)NCc3cnc(C)nc3)cc(-c3snnc3C(C)C)c2)nc1 [Compound 5]", "Ki [nM]": 33.9}
{"COMPOUND": "Cc1ccc(-c2cc(C(=O)NCc3cnc(C)cn3)cc(-c3nsnc3C(C)C)c2)nc1 [Compound 7]", "Ki [nM]": 43.7}

(a) Cc1ccc(-c2cc(C(=O)N[C@H](C)CO)cc(-c3snnc3C(C)C)c2)nc1 [Compound 4]
(b) Cc1ccc(-c2cc(C(=O)NCc3cnc(C)cn3)cc(-c3snnc3C(C)C)c2)nc1 [Compound 3]
(c) Cc1ccc(-c2cc(C(=O)N[C@H](C)CO)cc(-c3nsnc3C(C)C)c2)nc1 [Compound 1]
(d) Cc1ccc(-c2cc(C(=O)NCc3ncc(C)cn3)cc(-c3snnc3C(C)C)c2)nc1 [Compound 6]
Arrange the 4 compounds by rising Ki, starting with the smallest. Provide the ranking by listing each label in its place in the requested order.
b, c, d, a
